biological target: hGIPR (Homo sapiens); assay: Functional cAMP activity in the presence of 1% HSA; type: cell-based; settings: read-out: cAMP Rel EC50, hGIPR
Sequence (P48546 22-466): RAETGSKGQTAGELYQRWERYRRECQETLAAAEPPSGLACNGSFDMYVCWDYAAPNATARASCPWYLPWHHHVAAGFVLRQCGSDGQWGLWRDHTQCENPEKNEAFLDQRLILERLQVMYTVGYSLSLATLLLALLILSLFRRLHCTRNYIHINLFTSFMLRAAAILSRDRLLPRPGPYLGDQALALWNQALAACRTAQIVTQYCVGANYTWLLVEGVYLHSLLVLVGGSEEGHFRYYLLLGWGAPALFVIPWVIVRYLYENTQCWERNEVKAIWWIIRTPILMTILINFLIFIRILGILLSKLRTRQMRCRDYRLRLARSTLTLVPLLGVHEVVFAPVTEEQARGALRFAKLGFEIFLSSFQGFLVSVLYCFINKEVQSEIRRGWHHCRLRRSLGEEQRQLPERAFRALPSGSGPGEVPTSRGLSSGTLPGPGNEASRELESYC
pEC50: −log10 of the molar value. Starred links: 1 amine or outer side, 2 acyl side, 3 side chain; linkers in the order of their positions; H or OH if unused. Non-standard residues stand in square brackets, D forms with d. Groups on a side chain read outwards from the residue. No end group written: not given here. *: point of attachment. C20 diacid = O=C(O)CCCCCCCCCCCCCCCCCCC(=O)*; C18 diacid = O=C(O)CCCCCCCCCCCCCCCCC(=O)*; αMePhe(2-F) = C[C@](N)(Cc1ccccc1F)C(=O)O; γGlu = O=C(O)[C@H](CCC(=O)[*:2])N[*:1]; εLys = N[C@@H](CCCCN[*:1])C(=O)[*:2]; αMe4Pal = C[C@](N)(Cc1ccncc1)C(=O)O; αMeY = C[C@](N)(Cc1ccc(O)cc1)C(=O)O; 4Pal = N[C@@H](Cc1ccncc1)C(=O)O; αMeL = CC(C)C[C@](C)(N)C(=O)O; αMeS = C[C@](N)(CO)C(=O)O; Orn = NCCC[C@H](N)C(=O)O; AEEA = NCCOCCOCC(=O)O; Aib = CC(C)(N)C(=O)O

>  <SUBSTANCE>
H-Y[Aib]QGTFTSD[4Pal]SQ[αMeL]LDKK([γGlu-γGlu-C18 diacid])AQ[Aib]AFIE[αMeY]LLEGGPSSGAPPPSGS-NH2 [Example 938]

>  <pEC50>
7.67

$$$$
>  <SUBSTANCE>
H-Y[Aib]QGT[αMePhe(2-F)]TSD[4Pal][αMeS]I[αMeL]LD[Orn]K([γGlu-γGlu-C18 diacid])AQ[αMe4Pal]EFI[dE][αMeY]LVEGGPSSGEPPPSGS-NH2 [Example 737]

>  <pEC50>
9.30

$$$$
>  <SUBSTANCE>
H-Y[Aib]QGTFTSDYSR[αMeL]LDKK([AEEA-γGlu-C18 diacid])AQ[Aib]AFIEYLLEGGESSGAPPPSGS-NH2 [Example 361]

>  <pEC50>
7.33

$$$$
>  <SUBSTANCE>
H-Y[Aib]QGT[αMePhe(2-F)]TSD[4Pal][αMeS]I[αMeL]LD[Orn]K([AEEA-γGlu-C18 diacid])AQ[αMe4Pal]EFI[dE][αMeY]LVEGGPSSGAPPPGGE-NH2 [Example 1154]

>  <pEC50>
9.02

$$$$
>  <SUBSTANCE>
H-Y[Aib]QGTFTSDFS[Orn][αMeL]LDKK([AEEA-γGlu-C18 diacid])AQ[Aib]AFIEYLLEGGPSSGAPPPEGS-NH2 [Example 130]

>  <pEC50>
7.22

$$$$
>  <SUBSTANCE>
H-Y[Aib]QGTFTSDYSI[αMeL]LDKQAAK([εLys-εLys-γGlu-C20 diacid])QFVEWLLA[Aib]GPSSGEPPPSEG-NH2 [Example 329]

>  <pEC50>
7.37

$$$$
>  <SUBSTANCE>
H-Y[Aib]QGTFTSD[4Pal]S[Orn][αMeL]LD[Orn]K([γGlu-γGlu-C18 diacid])AQ[αMe4Pal]EFIEYLLAGGPSSGAPPPSGSEE-NH2 [Example 1003]

>  <pEC50>
7.80

$$$$
>  <SUBSTANCE>
H-Y[Aib]QGTFTSDFS[Orn][αMeL]LDKK([AEEA-γGlu-C18 diacid])AQ[Aib]AFIEYLLAGGPSSGAPPPSGSE-NH2 [Example 90]

>  <pEC50>
7.60

$$$$
>  <SUBSTANCE>
H-Y[Aib]QGTFTSDFS[Orn][αMeL]LDKK([AEEA-γGlu-C18 diacid])AQ[Aib]AFIEYLLEGGPSSGAPPPGGSG-NH2 [Example 64]

>  <pEC50>
7.60

$$$$
>  <SUBSTANCE>
H-Y[Aib]QGTFTSD[4Pal]SQ[αMeL]LD[Orn]K([AEEA-γGlu-C18 diacid])AQ[αMe4Pal]AFIE[αMeY]LIE[Aib]GPSSGEPPPSGSEE-NH2 [Example 1097]

>  <pEC50>
7.56

$$$$
>  <SUBSTANCE>
H-Y[Aib]QGTFTSD[4Pal]SQ[αMeL]LD[Orn]K([AEEA-γGlu-C18 diacid])AQ[αMe4Pal]AFIE[αMeY]LIEGGPSSGAPPPSGSEE-NH2 [Example 1041]

>  <pEC50>
7.12

$$$$
>  <SUBSTANCE>
H-Y[Aib]QGT[αMePhe(2-F)]TSD[4Pal]SI[αMeL]LDKK([γGlu-γGlu-C18 diacid])AQ[Aib]AFIEYLEEGGPSSGEPPPSGEGE-NH2 [Example 625]

>  <pEC50>
8.74

$$$$
>  <SUBSTANCE>
H-Y[Aib]Q[dA]T[αMePhe(2-F)]TSD[4Pal]SI[αMeL]LD[Orn]K([AEEA-γGlu-C18 diacid])AQ[αMe4Pal]EFI[dE][αMeY]LVEGGPSSGAPPPSGS-NH2 [Example 1205]

>  <pEC50>
7.79

$$$$
>  <SUBSTANCE>
H-Y[Aib]QGTFTSD[4Pal]S[Orn][αMeL]LD[Orn]K([γGlu-γGlu-C18 diacid])AQ[αMe4Pal]QFIEYLIAGGPSSGAPPPSGSEE-NH2 [Example 1000]

>  <pEC50>
7.81

$$$$
>  <SUBSTANCE>
H-Y[Aib]QGTFTSD[4Pal]SR[αMeL]LDKK([AEEA-γGlu-C18 diacid])AQ[αMe4Pal]AFIEYLIE[Aib]GPSSGAPPPSGS-NH2 [Example 809]

>  <pEC50>
7.69

$$$$
>  <SUBSTANCE>
Y[Aib]QGT[αMePhe(2-F)]TSD[4Pal][αMeS]I[αMeL]LD[Orn]K([γGlu-γGlu-C18 diacid])AQ[Aib][Orn]FI[dE][αMeY]LSEGGPSSGEPPPSGSEE-NH2 [Example 569]

>  <pEC50>
7.91

$$$$
>  <SUBSTANCE>
Y[Aib]QGT[αMePhe(2-F)]TSD[4Pal][αMeS]I[αMeL]LD[Orn]K([AEEA-γGlu-C18 diacid])AQ[αMe4Pal]EFI[dE][αMeY]LVEGGPSSGEPPPSGGGE-NH2 [Example 735]

>  <pEC50>
8.88

$$$$
>  <SUBSTANCE>
H-Y[Aib]QGT[αMePhe(2-F)]TSD[4Pal][αMeS]ILLD[Orn]K([γGlu-γGlu-C18 diacid])AQ[Aib][Orn]FI[dE][αMeY]LQEGGPSSGEPPPSGAE-NH2 [Example 547]

>  <pEC50>
8.14

$$$$
>  <SUBSTANCE>
H-Y[Aib]QGTFTSDFSK[αMeL]LDKK([AEEA-γGlu-C18 diacid])AQ[Aib]AFIEYLIE[Aib]SPSSGAPPPSGS-NH2 [Example 805]

>  <pEC50>
7.89

$$$$
>  <SUBSTANCE>
H-Y[Aib]QGTFTSDFS[Orn][αMeL]LDKK([AEEA-γGlu-C20 diacid])AQ[Aib]AFIEYLLAGGPSSGAPPPSGS-NH2 [Example 76]

>  <pEC50>
7.34

$$$$
>  <SUBSTANCE>
H-Y[Aib]QGT[αMePhe(2-F)]TSDYSKLLDKIAQK([AEEA-γGlu-C20 diacid])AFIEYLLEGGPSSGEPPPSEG-NH2 [Example 295]

>  <pEC50>
7.21

$$$$
>  <SUBSTANCE>
H-Y[Aib]QGTFTSDFS[Orn][αMeL]LDKK([AEEA-γGlu-C20 diacid])AQ[Aib]AFIEWLLAGGPSSGEPPPSGE-NH2 [Example 103]

>  <pEC50>
7.45

$$$$
